STUDY TARGET: T1, Factor Bb (UniProt P00751 260-764)
T1 construct: domain: Factor Bb
T1 sequence (P00751 260-764 limits assumed): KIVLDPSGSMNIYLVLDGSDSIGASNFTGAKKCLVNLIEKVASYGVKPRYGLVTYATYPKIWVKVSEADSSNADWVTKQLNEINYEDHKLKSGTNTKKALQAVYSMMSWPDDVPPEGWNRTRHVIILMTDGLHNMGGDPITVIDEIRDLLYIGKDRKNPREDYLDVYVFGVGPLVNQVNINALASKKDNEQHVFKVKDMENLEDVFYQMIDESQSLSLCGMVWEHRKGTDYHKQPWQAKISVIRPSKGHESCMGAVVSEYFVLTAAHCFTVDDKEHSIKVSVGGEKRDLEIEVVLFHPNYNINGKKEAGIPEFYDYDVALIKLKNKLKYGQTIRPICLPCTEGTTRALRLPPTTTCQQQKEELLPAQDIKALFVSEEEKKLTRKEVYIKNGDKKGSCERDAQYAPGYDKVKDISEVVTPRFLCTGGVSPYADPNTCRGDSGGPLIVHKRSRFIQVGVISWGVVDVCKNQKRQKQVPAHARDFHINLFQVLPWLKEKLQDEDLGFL
MEASUREMENT DESCRIPTION: binding screen of Example 5; method and unit not stated
# binding relative to negative control mIgG2 per record follows
In your answer, state the number alone without any accompanying words.

Item under review: antibody 38F5 (antibody, V domains shown, Mouse hybridoma antibody) VH: EVMLVESGGALVKPGGSLKLSCTASGFTFSNYAMSWVRQTPEKRLEWVAQTISSGGRYTYYPDSVKGRFTISRDNARNTLYLQMSSLRSEDTAMYYCVRRYYGNSYWYFDVWGAGTTVTVSS VL: DIVMTQSPSSLSVSAGEKVTMNCKSSQSLLNSGNQKHYLTWYQQKPGQPPKLLIYGASTRGSGVPDRFTGSGSGTDFTLTISSVQAEDLAVYYCQNDHSYPYTFGGGTKLEIK . Reported binding relative to negative control mIgG2?
-0.01

antibody 3D8 (antibody, V domains shown, Mouse hybridoma antibody raised against human C3) VH: EIQLQQSGAELVKPGASVKISCKASGYSFTGYNMNWVKQSHGKSLEWIGNINPYYGSTNYNQKFKGKATLTVDKSSTTAYMQLDSLTSEDSAVYYCARGYYGGNYPFAYWGQGTLVTVSA VL: DIQMTQSPASLSASVGETVTITCRASENIYSYLAWYQQKQGKSPQLLVYNAKTLAEGVPSRFSGSGSGTQFSLKINSLQPEDFGSYYCQHYYGTPYTFGGGSKVEIK , same question.
-0.01

antibody 62B11 (antibody, V domains shown, Mouse hybridoma antibody) VH: EVKLVESGGGLVQPGGSLKLSCAASGFTFSSYTMSWVRQTPEKRLEWVAYISSGGGTTYYPDTVKGRFTVSRDNAKNTLYLQMSSLRSEDTAMYSCARRYYRGSSLWYFDVWGAGTTVTVSS VL: DIVMTQSPSSLTVTAGEKVTMSCKSSQSLFNSGSQKNFLTWYQQRPGQPPKLLIYWASTRESGVPDRFTGSGSGTDFTLTISSVQAEDLAVYYCQNDYSYPLTFGAGTKLELK , same question.
-0.02

antibody 38G10 (antibody, V domains shown, Mouse hybridoma antibody; Parent of Hz38G10; also called parental 38G10 antibody) VH: EVQLQQSGPELVKPGDSVKMSCKASGYTFTDFYMDWVKQSHGKSLEWIGYIYPHNGGTTYNQNFTGKATLTVDKSSNTAYMELHSLTSEDSAVYYCARRGGFDFDYWGQGTTLTVSS VL: NIVMTQSPKSMSLSVGERVTLRCKASENVDTYVSWYQQKPEQSPKLLIYGASNRYTGVPDRFTGSGSATEFTLTISSVQAEDLVGYHCGQSHSYPLTFGAGTKLELK , same question.
0.01
